IC50 for assorted molecules
- EXPERIMENTAL SYSTEM: IGF1R (Homo sapiens, UniProt P08069)
- Sequence (P08069 31-1367, species assumed): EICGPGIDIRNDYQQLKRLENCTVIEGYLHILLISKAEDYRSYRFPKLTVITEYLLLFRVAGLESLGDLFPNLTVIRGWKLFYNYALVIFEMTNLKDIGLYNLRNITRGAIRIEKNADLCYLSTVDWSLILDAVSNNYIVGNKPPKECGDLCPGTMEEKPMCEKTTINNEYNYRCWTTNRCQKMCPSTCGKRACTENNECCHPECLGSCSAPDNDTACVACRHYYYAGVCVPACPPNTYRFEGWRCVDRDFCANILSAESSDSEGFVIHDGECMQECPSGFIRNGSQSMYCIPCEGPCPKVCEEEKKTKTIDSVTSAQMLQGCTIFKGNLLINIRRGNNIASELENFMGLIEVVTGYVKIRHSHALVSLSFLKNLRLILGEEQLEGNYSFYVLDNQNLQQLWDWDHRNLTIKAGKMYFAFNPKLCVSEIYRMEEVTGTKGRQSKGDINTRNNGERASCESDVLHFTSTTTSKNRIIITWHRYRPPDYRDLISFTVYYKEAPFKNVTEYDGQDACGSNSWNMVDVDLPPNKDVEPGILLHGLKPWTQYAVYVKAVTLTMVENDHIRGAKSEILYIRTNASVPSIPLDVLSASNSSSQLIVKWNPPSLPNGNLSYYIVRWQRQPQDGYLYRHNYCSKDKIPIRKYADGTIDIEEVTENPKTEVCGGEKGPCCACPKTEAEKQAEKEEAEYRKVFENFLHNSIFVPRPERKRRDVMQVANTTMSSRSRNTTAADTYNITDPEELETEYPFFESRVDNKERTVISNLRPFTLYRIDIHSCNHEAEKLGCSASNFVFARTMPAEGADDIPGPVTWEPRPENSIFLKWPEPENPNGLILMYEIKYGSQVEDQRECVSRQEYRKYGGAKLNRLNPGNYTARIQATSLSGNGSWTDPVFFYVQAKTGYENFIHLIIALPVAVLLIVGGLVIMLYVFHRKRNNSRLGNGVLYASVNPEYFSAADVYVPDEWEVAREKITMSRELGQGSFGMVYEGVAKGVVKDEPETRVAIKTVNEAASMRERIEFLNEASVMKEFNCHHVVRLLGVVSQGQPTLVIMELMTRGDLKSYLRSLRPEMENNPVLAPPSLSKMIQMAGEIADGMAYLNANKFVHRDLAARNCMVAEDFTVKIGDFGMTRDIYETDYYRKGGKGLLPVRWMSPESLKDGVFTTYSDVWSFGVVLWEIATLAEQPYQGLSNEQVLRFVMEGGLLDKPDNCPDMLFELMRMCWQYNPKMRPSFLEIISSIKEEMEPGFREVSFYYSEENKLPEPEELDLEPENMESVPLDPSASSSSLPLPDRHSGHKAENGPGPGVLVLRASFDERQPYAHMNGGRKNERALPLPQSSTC
- EXPERIMENT SUMMARY: Caliper Mobility Shift Assay, kinase inhibition
- Assay type: biochemical
- EXPERIMENTAL CONDITIONS: read-out: Kinase inhibitory activity (IC50, nM) IGF1R

| MOLECULE | IC50 |
| --- | --- |
| CNC(=O)c1cc(Oc2ccc(NC(=O)Nc3ccc(Cl)c(C(F)(F)F)c3)c(F)c2)ccn1 [Regorafenib, regorafenib, reference compound] | > 400000 nM |
| COc1cc2nccc(Oc3ccc(NC(=O)Nc4cn[nH]c4)cc3F)c2cc1C(N)=O | > 200000 nM |
| COc1cc2nccc(Oc3ccc(NC(=O)Nc4cnn(C)c4)cc3F)c2cc1C(N)=O | > 200000 nM |
| CNC(=O)c1cc2c(Oc3ccc(NC(=O)Nc4cnn(C)c4)cc3F)ccnc2cc1OC | > 500000 nM |

* * *

IC50 overview
- EXPERIMENTAL SYSTEM: UniProt P00533
- EXPERIMENT SUMMARY: Caliper Mobility Shift Assay, kinase inhibition
- Type: biochemical
- EXPERIMENTAL CONDITIONS: read-out: Kinase inhibitory activity (IC50, nM) EGFR

| MOLECULE | IC50 |
| --- | --- |
| CNC(=O)c1cc2c(Oc3ccc(NC(=O)Nc4cnn(C)c4)cc3F)ccnc2cc1OC | > 500000 nM |
| COc1cc2nccc(Oc3ccc(NC(=O)Nc4cnn(C)c4)cc3F)c2cc1C(N)=O | > 200000 nM |
| CNC(=O)c1cc(Oc2ccc(NC(=O)Nc3ccc(Cl)c(C(F)(F)F)c3)c(F)c2)ccn1 [Regorafenib, regorafenib, reference compound] | 10600 nM |
| COc1cc2nccc(Oc3ccc(NC(=O)Nc4cn[nH]c4)cc3F)c2cc1C(N)=O | > 200000 nM |

* * *

- EXPERIMENTAL SYSTEM: RET (Homo sapiens)
- Sequence (P07949 29-1114, species assumed): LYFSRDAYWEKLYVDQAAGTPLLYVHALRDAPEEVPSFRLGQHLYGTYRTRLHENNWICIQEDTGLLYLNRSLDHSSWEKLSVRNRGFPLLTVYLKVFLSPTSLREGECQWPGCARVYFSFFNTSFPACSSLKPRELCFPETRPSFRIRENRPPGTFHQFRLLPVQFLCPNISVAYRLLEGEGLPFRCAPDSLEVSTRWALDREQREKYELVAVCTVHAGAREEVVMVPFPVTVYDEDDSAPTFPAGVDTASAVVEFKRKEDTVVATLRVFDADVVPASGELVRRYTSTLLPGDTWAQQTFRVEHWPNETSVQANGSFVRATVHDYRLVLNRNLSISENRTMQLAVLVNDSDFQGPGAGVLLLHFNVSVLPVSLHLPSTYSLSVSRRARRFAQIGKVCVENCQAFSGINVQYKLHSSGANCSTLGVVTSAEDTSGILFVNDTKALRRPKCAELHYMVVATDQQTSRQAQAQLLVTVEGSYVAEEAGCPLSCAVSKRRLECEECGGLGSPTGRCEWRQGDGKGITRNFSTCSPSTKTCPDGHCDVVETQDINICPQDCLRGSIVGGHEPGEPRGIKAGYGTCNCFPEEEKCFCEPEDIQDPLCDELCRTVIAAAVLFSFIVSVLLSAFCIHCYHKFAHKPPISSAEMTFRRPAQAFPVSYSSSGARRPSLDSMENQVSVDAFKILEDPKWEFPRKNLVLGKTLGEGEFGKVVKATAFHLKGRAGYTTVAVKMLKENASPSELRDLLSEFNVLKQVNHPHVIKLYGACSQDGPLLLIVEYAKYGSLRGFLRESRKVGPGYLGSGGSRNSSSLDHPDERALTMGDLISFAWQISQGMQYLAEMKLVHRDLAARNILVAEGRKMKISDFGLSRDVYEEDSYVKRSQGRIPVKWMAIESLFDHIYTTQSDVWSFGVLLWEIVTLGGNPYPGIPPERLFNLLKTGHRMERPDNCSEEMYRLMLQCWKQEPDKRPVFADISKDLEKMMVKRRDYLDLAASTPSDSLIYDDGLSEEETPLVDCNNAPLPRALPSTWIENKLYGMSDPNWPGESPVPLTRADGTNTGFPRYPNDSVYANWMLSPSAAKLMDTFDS
- EXPERIMENT SUMMARY: Caliper Mobility Shift Assay, kinase inhibition
- Assay type: biochemical
- EXPERIMENTAL CONDITIONS: read-out: Kinase inhibitory activity (IC50, nM) RET
PROPERTY LABEL: IC50 (nM)

| SMILES STRING | RESULT NUMBER |
| --- | --- |
| COc1cc2nccc(Oc3ccc(NC(=O)Nc4cn[nH]c4)cc3F)c2cc1C(N)=O | 204 |
| CNC(=O)c1cc2c(Oc3ccc(NC(=O)Nc4cnn(C)c4)cc3F)ccnc2cc1OC | 106 |
| COc1cc2nccc(Oc3ccc(NC(=O)Nc4cnn(C)c4)cc3F)c2cc1C(N)=O | 290 |

* * *

- EXPERIMENTAL SYSTEM: FLT3 (Homo sapiens)
- Sequence (P36888 27-993, species assumed): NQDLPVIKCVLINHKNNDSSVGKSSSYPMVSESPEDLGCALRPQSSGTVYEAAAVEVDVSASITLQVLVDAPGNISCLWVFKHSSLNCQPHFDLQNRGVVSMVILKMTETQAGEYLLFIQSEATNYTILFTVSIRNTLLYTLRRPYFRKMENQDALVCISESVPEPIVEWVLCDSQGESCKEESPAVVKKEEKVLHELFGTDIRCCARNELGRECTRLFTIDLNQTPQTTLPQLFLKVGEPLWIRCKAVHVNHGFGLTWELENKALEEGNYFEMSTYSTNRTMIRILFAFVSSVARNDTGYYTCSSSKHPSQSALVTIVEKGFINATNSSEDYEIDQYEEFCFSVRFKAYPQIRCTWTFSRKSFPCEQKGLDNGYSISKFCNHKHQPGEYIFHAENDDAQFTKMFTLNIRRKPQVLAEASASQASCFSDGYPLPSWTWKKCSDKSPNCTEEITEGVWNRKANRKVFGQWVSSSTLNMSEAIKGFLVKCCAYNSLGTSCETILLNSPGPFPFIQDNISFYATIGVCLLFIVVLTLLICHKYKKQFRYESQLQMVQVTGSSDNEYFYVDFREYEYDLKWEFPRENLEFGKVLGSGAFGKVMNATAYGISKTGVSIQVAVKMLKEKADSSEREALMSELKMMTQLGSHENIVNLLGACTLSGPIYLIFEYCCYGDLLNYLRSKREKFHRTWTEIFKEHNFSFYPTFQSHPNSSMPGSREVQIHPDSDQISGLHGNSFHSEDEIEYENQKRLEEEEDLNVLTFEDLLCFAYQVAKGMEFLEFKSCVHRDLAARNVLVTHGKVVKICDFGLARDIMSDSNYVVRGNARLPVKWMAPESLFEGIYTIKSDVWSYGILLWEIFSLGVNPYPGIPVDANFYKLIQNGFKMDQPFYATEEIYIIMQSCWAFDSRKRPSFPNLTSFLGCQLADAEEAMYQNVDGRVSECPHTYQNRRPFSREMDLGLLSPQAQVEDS
- EXPERIMENT SUMMARY: Caliper Mobility Shift Assay, kinase inhibition
- Assay type: biochemical
- EXPERIMENTAL CONDITIONS: read-out: Kinase inhibitory activity (IC50, nM) FLT3

| SMILES STRING | IC50 / nM |
| --- | --- |
| COc1cc2nccc(Oc3ccc(NC(=O)Nc4cn[nH]c4)cc3F)c2cc1C(N)=O | 708 |
| COc1cc2nccc(Oc3ccc(NC(=O)Nc4cnn(C)c4)cc3F)c2cc1C(N)=O | 890 |
| CNC(=O)c1cc2c(Oc3ccc(NC(=O)Nc4cnn(C)c4)cc3F)ccnc2cc1OC | 576 |

* * *

- EXPERIMENT SUMMARY: Pharmacokinetic property evaluation test in CD-1 mice, intravenous
- Assay type: in vivo
- EXPERIMENTAL CONDITIONS: both sexes, mouse, plasma, intravenous injection, 3 mg/kg, single administration, non-compartment model
Measured clearance of individual entries
PROPERTY LABEL: clearance (mL/min/kg)

| SMILES STRING | UNIT NAME | RESULT NUMBER |
| --- | --- | --- |
| COc1cc2nccc(Oc3ccc(NC(=O)Nc4cnn(C)c4)cc3F)c2cc1C(N)=O | mL/min/kg | 30.5 |
| CNC(=O)c1cc2c(Oc3ccc(NC(=O)Nc4cnn(C)c4)cc3F)ccnc2cc1OC | mL/min/kg | 25.2 |

* * *

- EXPERIMENT SUMMARY: Pharmacokinetic property evaluation test in CD-1 mice, intravenous
- Assay type: in vivo
- EXPERIMENTAL CONDITIONS: both sexes, mouse, plasma, intravenous injection, 3 mg/kg, single administration, non-compartment model

| SMILES STRING | MRT inf |
| --- | --- |
| CNC(=O)c1cc2c(Oc3ccc(NC(=O)Nc4cnn(C)c4)cc3F)ccnc2cc1OC | 20.4 min |
| COc1cc2nccc(Oc3ccc(NC(=O)Nc4cnn(C)c4)cc3F)c2cc1C(N)=O | 49.2 min |

* * *

Listing: IC50 of selected compounds
- EXPERIMENTAL SYSTEM: UniProt:P09619
- Sequence (P09619 33-1106, species assumed): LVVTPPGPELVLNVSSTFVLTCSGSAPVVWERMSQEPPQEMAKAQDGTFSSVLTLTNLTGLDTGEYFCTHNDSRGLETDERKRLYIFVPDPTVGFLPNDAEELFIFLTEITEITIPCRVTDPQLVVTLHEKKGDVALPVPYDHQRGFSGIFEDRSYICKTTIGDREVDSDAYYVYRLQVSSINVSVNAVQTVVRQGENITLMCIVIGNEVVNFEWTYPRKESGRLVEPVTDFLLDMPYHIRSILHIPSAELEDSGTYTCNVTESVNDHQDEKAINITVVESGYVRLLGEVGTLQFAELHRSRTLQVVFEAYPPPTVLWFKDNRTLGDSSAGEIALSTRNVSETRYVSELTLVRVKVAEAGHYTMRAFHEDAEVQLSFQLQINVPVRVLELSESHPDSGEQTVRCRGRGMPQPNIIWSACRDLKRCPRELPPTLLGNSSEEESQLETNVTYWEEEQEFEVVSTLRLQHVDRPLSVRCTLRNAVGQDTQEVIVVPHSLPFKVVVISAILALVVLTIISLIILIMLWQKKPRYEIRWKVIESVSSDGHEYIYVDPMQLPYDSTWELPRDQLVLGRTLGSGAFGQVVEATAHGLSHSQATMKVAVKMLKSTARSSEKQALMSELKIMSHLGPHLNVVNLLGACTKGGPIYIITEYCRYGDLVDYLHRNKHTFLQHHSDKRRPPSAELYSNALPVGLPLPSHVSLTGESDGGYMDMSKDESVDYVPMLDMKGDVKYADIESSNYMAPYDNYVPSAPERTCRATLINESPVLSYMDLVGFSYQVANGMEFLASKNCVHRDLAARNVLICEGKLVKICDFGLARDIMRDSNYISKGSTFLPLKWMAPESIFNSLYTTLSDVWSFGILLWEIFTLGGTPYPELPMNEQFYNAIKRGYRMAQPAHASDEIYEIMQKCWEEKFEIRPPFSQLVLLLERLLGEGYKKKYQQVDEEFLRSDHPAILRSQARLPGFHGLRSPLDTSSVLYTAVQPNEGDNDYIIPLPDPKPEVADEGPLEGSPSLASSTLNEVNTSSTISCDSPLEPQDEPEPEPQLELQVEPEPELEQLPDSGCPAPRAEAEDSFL
- EXPERIMENT SUMMARY: Caliper Mobility Shift Assay, kinase inhibition
- Type: biochemical
- EXPERIMENTAL CONDITIONS: read-out: Kinase inhibitory activity (IC50, nM) PDGFRβ

| SMILES STRING | IC50 (nM) |
| --- | --- |
| COc1cc2nccc(Oc3ccc(NC(=O)Nc4cnn(C)c4)cc3F)c2cc1C(N)=O | 165 |
| COc1cc2nccc(Oc3ccc(NC(=O)Nc4cn[nH]c4)cc3F)c2cc1C(N)=O | 151 |
| CNC(=O)c1cc2c(Oc3ccc(NC(=O)Nc4cnn(C)c4)cc3F)ccnc2cc1OC | 110 |

Measured values drawn from patent US10689361B2 for this set.
